- assayInfo: Oral bioavailability in rat
- Format: ADME, organism-based
- conditionsUsed: in vivo
endpointLabel: bioavailability (%)
Express your answer in %, writing the number without its unit.

Answered cases to consult:
CC(C)C[C@@H]1C(=O)N[C@H](C2Cc3ccccc3C2)C(=O)N1[C@@H](C(=O)N(C)C)c1ccc(F)cc1F = 53
CC(C)C[C@@H]1C(=O)N[C@H](C2Cc3ccccc3C2)C(=O)N1[C@@H](C(=O)NC(C)C)c1ccc2occc2c1 = 68
CC(C)C[C@@H]1C(=O)N[C@H](C2Cc3ccccc3C2)C(=O)N1[C@@H](C(=O)NC(C)(C)C)c1ccc2c(c1)CCO2 = 27

// moving on: another record for bioavailability
Indicate the recorded bioavailability value for this compound: `CC(C)C[C@@H]1C(=O)N[C@H](C2Cc3ccccc3C2)C(=O)N1[C@@H](C(=O)NC(C)C)c1ccc(N(C)C)cc1` 2

* * *

Catalogue of bioavailability values
- assayInfo: Oral bioavailability in rat
- Type: ADME, organism-based
- conditionsUsed: in vivo
Express your answer in %, writing the number without its unit.

Answered cases to consult:
CNC(=O)[C@@H](c1ccc(F)cc1F)N1C(=O)[C@@H](C2Cc3ccccc3C2)NC(=O)[C@H]1CC(C)C = 98
CC(C)C[C@@H]1C(=O)N[C@H](C2Cc3ccccc3C2)C(=O)N1[C@@H](C(=O)N1CC(O)C1)c1ccc(F)cc1F = 12
CC(C)C[C@@H]1C(=O)N[C@H](C2Cc3ccccc3C2)C(=O)N1[C@@H](C(=O)NC(C)C)c1ccc(F)cc1F = 46
CC(C)C[C@@H]1C(=O)N[C@H](C2Cc3ccccc3C2)C(=O)N1[C@@H](C(=O)O)c1ccc(F)cc1F = 30
CC(C)C[C@@H]1C(=O)N[C@H](C2Cc3ccccc3C2)C(=O)N1[C@@H](C(N)=O)c1ccc(F)cc1F = 22

Indicate the recorded bioavailability value for this molecule: `CC(C)C[C@@H]1C(=O)N[C@H](C2Cc3ccccc3C2)C(=O)N1[C@@H](C(=O)N(C)CCO)c1ccc(F)cc1F` 55

Indicate the recorded bioavailability value for this molecule: `CC(C)C[C@@H]1C(=O)N[C@H](C2Cc3ccccc3C2)C(=O)N1[C@@H](C(=O)NC(C)(C)C)c1ccc2c(c1)OCO2` 48

* * *

- system: Vasopressin V1a receptor (Homo sapiens)
- Sequence (P37288 whole entry): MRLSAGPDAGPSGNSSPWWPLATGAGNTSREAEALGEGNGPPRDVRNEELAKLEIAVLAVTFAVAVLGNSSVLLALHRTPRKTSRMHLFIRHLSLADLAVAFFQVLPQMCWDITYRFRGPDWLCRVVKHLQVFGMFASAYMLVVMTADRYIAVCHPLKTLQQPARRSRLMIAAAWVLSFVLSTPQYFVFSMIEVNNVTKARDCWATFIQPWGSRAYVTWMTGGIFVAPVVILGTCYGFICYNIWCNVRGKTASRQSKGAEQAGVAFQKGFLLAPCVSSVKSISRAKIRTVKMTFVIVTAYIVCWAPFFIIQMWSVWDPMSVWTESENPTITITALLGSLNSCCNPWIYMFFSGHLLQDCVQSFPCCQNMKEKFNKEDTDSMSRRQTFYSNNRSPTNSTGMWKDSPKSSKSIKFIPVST
endpointLabel: Ki

Give the observed Ki of `CC(C)C[C@@H]1C(=O)N[C@H](C2Cc3ccccc3C2)C(=O)N1[C@@H](C(=O)N(C)C)c1ccc(F)cc1F` for Vasopressin V1a receptor (Homo sapiens). > 6.31 µM

* * *

- assayInfo: Clearance in rat
- Type: ADME, organism-based
- conditionsUsed: in vivo
Label True when clearance is strictly below 20 mL/min/kg; at or above that, label False.

Example entries begin here.
CC(C)C[C@@H]1C(=O)N[C@H](C2Cc3ccccc3C2)C(=O)N1[C@@H](C(=O)NC(C)C)c1ccc(N(C)C)cc1 = False
CC(C)C[C@@H]1C(=O)N[C@H](C2Cc3ccccc3C2)C(=O)N1[C@@H](C(=O)N1CCOCC1)c1ccc(F)cc1F = True
CC(C)C[C@@H]1C(=O)N[C@H](C2Cc3ccccc3C2)C(=O)N1[C@@H](C(=O)NC(C)(C)C)c1ccc2c(c1)CCO2 = False
CC(C)C[C@@H]1C(=O)N[C@H](C2Cc3ccccc3C2)C(=O)N1[C@@H](C(=O)O)c1ccc(F)cc1F = False
CC(C)C[C@@H]1C(=O)N[C@H](C2Cc3ccccc3C2)C(=O)N1[C@@H](C(=O)N(C)CCO)c1ccc(F)cc1F = True

Let's switch to this compound now.
Does the reported clearance of `CC(C)C[C@@H]1C(=O)N[C@H](C2Cc3ccccc3C2)C(=O)N1[C@@H](C(=O)NC(C)(C)C)c1ccc2c(c1)OCO2` stay below 20 mL/min/kg? False

* * *

- assayInfo: Lipophilicity, log D by CHI method
- Format: physicochemical
- conditionsUsed: read-out: Log D
Catalogue of chromatographic logD values
Response field accepts a number only; no unit should be typed.

CC(C)C[C@@H]1C(=O)N[C@H](C2Cc3ccccc3C2)C(=O)N1[C@@H](C(=O)O)c1ccc(F)cc1F = 1.7
CC(C)C[C@@H]1C(=O)N[C@H](C2Cc3ccccc3C2)C(=O)N1[C@@H](C(=O)NC(C)(C)C)c1ccc2c(c1)OCO2 = 3.3
CC(C)C[C@@H]1C(=O)N[C@H](C2Cc3ccccc3C2)C(=O)N1[C@@H](C(=O)N(C)CCO)c1ccc(F)cc1F = 2.8
CC(C)C[C@@H]1C(=O)N[C@H](C2Cc3ccccc3C2)C(=O)N1[C@@H](C(=O)N(C)Cc1ccccn1)c1ccc(F)cc1 = 3.2
CC(C)C[C@@H]1C(=O)N[C@H](C2Cc3ccccc3C2)C(=O)N1[C@@H](C(=O)NC(C)(C)C)c1ccc(N2CCC(O)CC2)cc1 = 2.4
CC(C)C[C@@H]1C(=O)N[C@H](C2Cc3ccccc3C2)C(=O)N1[C@@H](C(=O)NC(C)(C)C)c1ccc2c(c1)CCO2 = 3.4
CC(C)C[C@@H]1C(=O)N[C@H](C2Cc3ccccc3C2)C(=O)N1[C@@H](C(=O)NCC(F)(F)F)c1ccc(F)cc1 = 3.3
CC(C)C[C@@H]1C(=O)N[C@H](C2Cc3ccccc3C2)C(=O)N1[C@@H](C(=O)N(C)C)c1ccc(F)cc1F = 3.3

Indicate the recorded chromatographic logD value for this compound: `CNC(=O)[C@@H](c1ccc(F)cc1F)N1C(=O)[C@@H](C2Cc3ccccc3C2)NC(=O)[C@H]1CC(C)C` 2.9

Indicate the recorded chromatographic logD value for this compound: `CCNS(=O)(=O)c1ccc(-c2ccc([C@H](C(=O)NC(C)(C)C)N3C(=O)[C@@H](C4Cc5ccccc5C4)NC(=O)[C@H]3CC(C)C)cc2)cc1` 3.4

Indicate the recorded chromatographic logD value for this compound: `CC(C)C[C@@H]1C(=O)N[C@H](C2Cc3ccccc3C2)C(=O)N1[C@@H](C(=O)N1CCOCC1)c1ccc(F)cc1F` 3.2

Indicate the recorded chromatographic logD value for this compound: `Cc1ccc([C@H](C(=O)NC(C)C)N2C(=O)[C@@H](C3Cc4ccccc4C3)NC(=O)[C@H]2CC(C)C)o1` 3.3

Indicate the recorded chromatographic logD value for this compound: `CC(C)C[C@@H]1C(=O)N[C@H](C2Cc3ccccc3C2)C(=O)N1[C@@H](C(=O)N1CCC1)c1ccc(F)cc1F` 3.3

Indicate the recorded chromatographic logD value for this compound: `CC(C)C[C@@H]1C(=O)N[C@H](C2Cc3ccccc3C2)C(=O)N1[C@@H](C(=O)N1CCN(C)CC1)c1ccc(F)cc1` 2.7

Indicate the recorded chromatographic logD value for this compound: `CC(C)C[C@@H]1C(=O)N[C@H](C2Cc3ccccc3C2)C(=O)N1[C@@H](C(=O)NCCN1CCCCC1)c1ccc(F)cc1` 2

* * *

- assayInfo: Half life in dog
- Format: ADME, organism-based, Canis lupus familiaris
- conditionsUsed: in vivo
endpointLabel: half-life (min)
Express your answer in min, writing the number without its unit.

CC(C)C[C@@H]1C(=O)N[C@H](C2Cc3ccccc3C2)C(=O)N1[C@@H](C(=O)NC(C)C)c1ccc2occc2c1 = 144

// moving on: another record for half-life
Indicate the recorded half-life value for this molecule: `CC(C)C[C@@H]1C(=O)N[C@H](C2Cc3ccccc3C2)C(=O)N1[C@@H](C(=O)N(C)C)c1ccc(F)cc1F` 126

* * *

- system: Oxytocin receptor (Homo sapiens)
- Sequence (P30559 whole entry): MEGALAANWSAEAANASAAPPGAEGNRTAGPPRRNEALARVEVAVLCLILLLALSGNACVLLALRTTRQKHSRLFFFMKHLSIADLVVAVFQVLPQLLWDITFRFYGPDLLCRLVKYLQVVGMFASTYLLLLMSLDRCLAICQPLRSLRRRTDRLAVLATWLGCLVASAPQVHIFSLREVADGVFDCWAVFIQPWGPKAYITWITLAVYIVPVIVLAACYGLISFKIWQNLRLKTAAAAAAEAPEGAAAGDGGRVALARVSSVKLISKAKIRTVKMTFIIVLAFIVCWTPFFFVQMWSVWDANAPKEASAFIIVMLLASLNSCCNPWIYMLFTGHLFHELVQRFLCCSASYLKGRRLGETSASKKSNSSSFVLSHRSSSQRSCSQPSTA
- assayInfo: […] activity at human OTR expressed in CHO cells assessed as inhibition of oxytocin-induced calcium mobilization by FLIPR assay
endpointLabel: pIC50
# pIC50 = -log10(concentration in molar units)

Indicate the recorded pIC50 value for this compound: `CC(C)C[C@@H]1C(=O)N[C@H](C2Cc3ccccc3C2)C(=O)N1[C@@H](C(=O)N(C)C)c1ccc(F)cc1F` 8.43

* * *

- system: UniProt:P30559
- assayInfo: Displacement of [3H]oxytocin from human OTR
Where a SMILES comes first, the peptide text is derived from it. Bridges are numbered along the chain shown (N, C = ends). [ ]: non-standard residue; d: D form. Orn = NCCC[C@H](N)C(=O)O; Mpa = O=C(O)CCS
Catalogue of Ki values
Number first, unit second: that is the form wanted.

Answered cases to consult:
CCOc1ccc(C[C@H]2NC(=O)CCSSC[C@@H](C(=O)N3CCC[C@H]3C(=O)N[C@@H](CCCN)C(=O)NCC(N)=O)NC(=O)[C@H](CC(N)=O)NC(=O)[C@H]([C@@H](C)O)NC(=O)[C@H]([C@@H](C)CC)NC2=O)cc1 [ATOSIBAN] ([Mpa][dY](Et)ITNCP[Orn]G-NH2; disulfide 1-6) = 39.8 nM
CC(C)C[C@@H]1C(=O)N[C@H](C2Cc3ccccc3C2)C(=O)N1[C@@H](C(=O)N1CCOCC1)c1ccc(F)cc1F = 1.26 nM
CC(C)C[C@@H]1C(=O)N[C@H](C2Cc3ccccc3C2)C(=O)N1[C@@H](C(N)=O)c1ccc(F)cc1F = 0.501 nM
CC(C)C[C@@H]1C(=O)N[C@H](C2Cc3ccccc3C2)C(=O)N1[C@@H](C(=O)NC(C)C)c1ccc2occc2c1 = 1 nM
CC(C)C[C@@H]1C(=O)N[C@H](C2Cc3ccccc3C2)C(=O)N1[C@@H](CO)c1ccc(F)cc1F = 12.6 nM

Indicate the recorded Ki value for this compound: `CNC(=O)[C@@H](c1ccc(F)cc1F)N1C(=O)[C@@H](C2Cc3ccccc3C2)NC(=O)[C@H]1CC(C)C` 0.398 nM

Indicate the recorded Ki value for this compound: `CC(C)C[C@@H]1C(=O)N[C@H](C2Cc3ccccc3C2)C(=O)N1[C@@H](C(=O)N1CC(O)C1)c1ccc(F)cc1F` 0.631 nM

Indicate the recorded Ki value for this compound: `CC[C@@H](C)[C@@H]1C(=O)N[C@H](C2Cc3ccccc3C2)C(=O)N1[C@@H](C(=O)NC(C)C)c1ccc(N2CCOCC2)cc1` 1.58 nM
